So I've got a bunch of binders here, and I need their Mean normalized OD values.
- measurement.target: T1, human recombinant soluble ACE2 (human, UniProt Q9BYF1 18-740)
- T1 construct: also called hrsACE2
- T1 sequence (Q9BYF1 18-740 limits assumed): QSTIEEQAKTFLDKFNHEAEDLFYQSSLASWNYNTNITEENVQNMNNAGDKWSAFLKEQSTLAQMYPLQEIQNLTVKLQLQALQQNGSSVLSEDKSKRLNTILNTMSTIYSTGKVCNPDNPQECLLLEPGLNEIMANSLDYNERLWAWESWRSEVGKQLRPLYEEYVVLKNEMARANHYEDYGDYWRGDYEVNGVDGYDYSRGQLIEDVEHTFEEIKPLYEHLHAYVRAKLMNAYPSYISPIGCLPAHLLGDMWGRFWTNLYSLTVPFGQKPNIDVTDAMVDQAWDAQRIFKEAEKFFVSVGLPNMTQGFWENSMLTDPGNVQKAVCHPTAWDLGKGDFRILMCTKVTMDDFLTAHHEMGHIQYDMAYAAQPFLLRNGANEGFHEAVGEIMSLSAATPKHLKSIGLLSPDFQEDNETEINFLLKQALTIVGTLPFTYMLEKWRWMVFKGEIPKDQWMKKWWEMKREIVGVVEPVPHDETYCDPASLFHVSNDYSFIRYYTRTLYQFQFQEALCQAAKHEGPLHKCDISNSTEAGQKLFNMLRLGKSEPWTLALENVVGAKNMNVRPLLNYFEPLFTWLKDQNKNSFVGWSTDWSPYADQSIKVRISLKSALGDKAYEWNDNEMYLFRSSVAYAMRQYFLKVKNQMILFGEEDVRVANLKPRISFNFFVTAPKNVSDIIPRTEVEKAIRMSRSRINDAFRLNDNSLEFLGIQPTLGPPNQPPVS
- experiment.notes: ELISA screen
Express it in OD; write the number only.

Quick check: Mean normalized OD of Ly75_4 CRD-mouse IgG2a-Fc fusion protein (Fc fusion) SSLSCYKVFHIERIVRKRNWEEAERFCQALGAHLPSFSRREEIKDFVHLLKDQFSGQRWLWIGLNKRSPDLQGSWQWSDRTPVSAVMMEPEFQQDFDIRDCAAIKVLDVPWRRVWHLYEDKDYAYWKPFACDAKLEWVCQGGGSGGGSGGGS ?
-0.004

Quick check: Mean normalized OD of Cd209e CRD-mouse IgG2a-Fc fusion protein (Fc fusion) FFNGNCYFFSKSQRDWHDSMTACKEMGAQLVIIKSHEEQSFLQQTSKKNSYTWMGLSDLNKEGEWYWLDGSPLSDSFEKYWKKGQPNNVGGQDCVEFRDNGWNDAKCEQRKFWICKGGGSGGGSGGGS ?
-0.016

Quick check: Mean normalized OD of Pla2r1_4 CRD-mouse IgG2a-Fc fusion protein (Fc fusion) GLASCFKVFHSEKVLMKRSWREAEAFCEEFGAHLASFAHIEEENFVNELLHSKFNWTQERQFWIGFNRRNPLNAGSWAWSDGSPVVSSFLDNAYFEEDAKNCAVYKANKTLLPSNCASKHEWICRGGGSGGGSGGGS ?
0.088
